These data points were gathered from paper PMC10233829.

Tested on: P. aeruginosa 37
Test: MIC, twofold microdilution, clinical strain
Assay type: cell-based
Conditions: Pseudomonas aeruginosa, 18 h
Quantity: MIC (µg/mL)
# number only, unit µg/mL dropped from output

Sample answers from the record:
structure=O=C(O)c1cn(C2CC2)c2cc(N3CCN(C(=O)CCCCCl)CC3)c(F)cc2c1=O assay_target="P. aeruginosa 37" measurement=6.4
structure=O=C(O)c1cn(C2CC2)c2cc(N3CCN(C(=O)C4CC4)CC3)c(F)cc2c1=O assay_target="P. aeruginosa 37" measurement=12.8
structure=O=C(O)c1cn(C2CC2)c2cc(N3CCN(C(=O)CCCCBr)CC3)c(F)cc2c1=O assay_target="P. aeruginosa 37" measurement=0.8
structure=O=C(O)c1cn(C2CC2)c2cc(N3CCN(C(=O)CBr)CC3)c(F)cc2c1=O assay_target="P. aeruginosa 37" measurement=12.8

Lab note: next molecule to report on.
Need MIC of O=C(O)c1cn(C2CC2)c2cc(N3CCN(C(=O)CCCCl)CC3)c(F)cc2c1=O , thanks.
0.8
